# MEASUREMENT_NOTES: soluble on expression in E. coli; label from the status in PepcDB or PDB records
MEASURED_PROPERTY: soluble on expression in E. coli

>>> meas_value("MAHHHHHHMFTLCKGYSEDEDEEEVKDIIDNLKEQKKSFEEKINYYKLKGNIERSHITIYTNLGEFQVELYWYHSPKTCLNFYTLCTMGYYDNTIFHRVIPDYIIQGGDPTGTGKGGKSIYGEYFEDEINTELKHTGAGILSMSNNGPNTNGSQFFITLCPLPHLDGKHTIFARVSKNMTCIENIASVQTTATNKPIFDVKILRTSTAVNVD")
"soluble"
>>> meas_value("GAMEDKVDAIREAIARNPQEIFQYVRLSQVKRDDKVLGYRVSPGKDPVLFESIGLQDGDMAVALNGLDLTDPNVMNTLFQSMNEMTEMSLTVERDGQQHDVYIQF")
"soluble"
>>> meas_value("MDNNPIENFMRTTMENIKGMIDVNTIVGEPIKNTDGSLIIPISKVSFGFASGGSEFKSQEDSQENKKIYPFGGGAGAGVSLKPIAFLVIKDDSVRLLPLNAENTYEKVVDMIPQLIEMCKGFSHKSKKEKCCNDDKKKDSNSTNGNTDNANQNSQQQSLEHHHHHH")
"soluble"

----------
# MEASUREMENT_NOTES: soluble on expression in E. coli; label from the status in PepcDB or PDB records
MEASURED_PROPERTY: soluble on expression in E. coli

>>> meas_value("MGEAPAVLVDHPENGHSNGVCVKSEPENTEITVDVGDRIFLIGGTHERNNFSIGVQIYDKISNNWFSPIVLGTGPKPSKGYSAFVLEQGRILVIKKGSPRNDSIWFLEVDSPYVREQKKLLRKEVVAWSKGVRGNAEKPIVISGPSGVGKGTLISMLMKEFPSMFGFSVSHTTRSPRSMEMDGVHYHFADKKVMEKEIKDGKFLEFASVHGNLYGTSIESVEAVTDSGKRCILDIDVQGARSVRASSLDAIFIFVCPPSMKELEDRLRARGTETEEQIQKRLRNAEAEIKEGISSGIFGLILYNDNLEECYKKLKNLLGLDGLAHVNGVEIEGINLPIEYAVSKMEDKIIIQETGKETRNKIVVDISSLNGGAPGRTRGILVDAIKF")
"soluble"
>>> meas_value("MFENESLSFEEQTIIQAAERYVQQELANEASGHDWWHIYRVTQLAKTIAEKEQANLFLCILTALLHDIGDEKFNESEEAGLLKVQQWLEANNVSTEQTNHILSIIANMSFKGGNTGKTVTTLEGKVVQDADRLDAIGAIGIARVMAYSGNKGRLIHDPHKQPREQLTQEEYRNGEDTAIMHFYEKLLKLKEQMNTNYGRLLAEKRHQFMELYLEEFYQEWDGHRLEHHHHHH")
"soluble"

----------
# MEASUREMENT_NOTES: soluble on expression in E. coli; label from the status in PepcDB or PDB records
MEASURED_PROPERTY: soluble on expression in E. coli

Some sequences with known soluble on expression in E. coli results, for comparison:
>>> meas_value("MLALSRGRYLARPAAGLEDLRRAQELRWLAFHARRAGSGASGLDADRFDGACSHMLIEEAESGALVGCFRFLTFASGREIGRSYSAQFYELSALEGFAGPMVEMGRFCIHPDRRDPDILRVAWGALTQHVDRAGIEMLFGCSSFHGTEPEAYLDTFAMLKERHLAPPRWLPRVKAASVYRFAQRLARREPDARRAMLQMPPLLRTYLMMGGWVSDHAVVDREMDTLHVFTGLEIGAIPARRARALRAVAG")
"not soluble"
>>> meas_value("AGKTLYDKLWEAHEVKRRDDGSSLIYIDRHIIHEVTSPQAFEGLRLANRKPWRIDANIATPDHNVPTTPERKGGIEAIVDQVSRLQVQTLDENCDEYGIVEFKMNDERQGIVHVISPEQGATLPGMTVVCGDSHTSTHGAFGALAHGIGTSEVEHVLATQCLVAKKMKN")
"not soluble"
>>> meas_value("YFSAICQARKNVYIETPYFIPDESLLKAIKSAALSGVDVRIIFPKIADHKIVNIASYSYFEEILRAGGKVYLYNKGFIHSKVVIIDDKIASAGTANMDLRSFMLNFEVNAFIYDEEVIRVMTDDFFEDLSYCEELNLEVFKNRNIIQKIKESVARLFSPIL")
"soluble"
>>> meas_value("MAHHHHHHMVGAMHDIQVGFLDRCSVFQFTLTCTVLDFQKVAEPQPKSPGSLPSSTRTAPNPNGEEVEKHINKEQYTVRCLGSEAYTEALKNYLDDGCIVRVIGRLKTTEVVDAGKKQPFPCIIVEQGRWSTVSLVHSLRKQRRDWQLQNILTSVATLE")
"not soluble"
>>> meas_value("MAHHHHHHMPTEAHGWAALSAKSKLEPFAFQRRDVGPDDVVIAIAYCGVCHSDVHQARDEWDGSTFPMVPGHEIVGHVTKVGSEVTKYKAGDRVGVGCMVDSCMKCRQCERGLEQYCVNGASFTYNSTQQDKKTPTFGGYSDHVVVREHFVVSIPDNLDLCAAAPLLCAGVTTFSPLRYWGVKKGTRVGVVGLGGLGHMAVKLANAMGAEVTVFTRSSNKVEEAENLGAHHVVNTNNEQEMNSIQGTLDVIVDTVGMSHDLRPYMMTLDIDGKLALVGMPEHAHPPLDPRRIIASRQCVGGSNIAGMPETQELLNFCGEHNITATVEKIGIEYINEAYERILASDVRYRFVIDMASLKKE")
"soluble"

Suppose we examine the sequence MDPLLTVLKERMRACQRRVSDRPRRQVVAIEWIDPPMASGNWIPELIALAGGENMLGTAGKHSPYIEWSTLLAIDPEVILVMPCGFDLERTRQELDQALQTYPQWQQLRALQTGQLYILDGNAYFNRPGPRLVDSLEILVEILHPCPEPKFHGVGWRPYVGPSMAKMSDEGLEHHHHHH ; what soluble on expression in E. coli value has been reported? not soluble

Suppose we examine the sequence MATRFMTDPHAMRDMAGRFEVHAQTVEDEARRMWASAQNISGAGWSGMAEATSLDTMAQMNQAFRNIVNMLHGVRDGLVRDANNYEQQEQASQQILSS ; what soluble on expression in E. coli value has been reported? not soluble

Suppose we examine the sequence IKQMLLDWCRAKTRGYEHVDIQNFSSSWSDGMAFCALVHNFFPEAFDYGQLSPQNRRQNFEVAFSSAETHADCPQLLDTEDMVRLREPDWKCVYTYIQEFYRCLVQKGLVKTKKS ; what soluble on expression in E. coli value has been reported? soluble
